Value source: BindingDB's records for doi:10.1039/c5md00579e

Field: EC50. Provide a value for each of the compounds that follow.
- method-description: Inhibition of MCT1 in human Raji cells assessed as inhibition of cell proliferation after 96 hrs by MTT assay
Give bare numbers, in nM.

CC(C)Cc1nn(C)c(=O)c2c(SCCCO)n(Cc3cnc(Cl)c4ccccc34)cc12 : 55
CC(C)Cc1nn(C)c(=O)c2c(SCCCO)n(Cc3ccnc(NCCCCCN)c3)cc12 : 520
CC(C)Cc1nn(C)c(=O)c2c(SCCCO)n(Cc3ccc(C#CCCCNC(=O)[C@@H](N)CCC(N)=O)c4ccccc34)cc12 : 4
CC(C)Cc1nn(C)c(=O)c2c(SCCCO)n(Cc3cnc(NCCCCCN)c4ccccc34)cc12 : 0.8

Now for another entry.
// lookup EC50 for `CC(C)Cc1nn(C)c(=O)c2c(SCCCO)n(Cc3ccc(NCCCCCN)nc3)cc12` 420
